System: P12-Ichikawa
Assay: cell viability relative to DMSO control; higher = less cytotoxic
Settings: HPLM + 10% dialyzed FBS; 48 h; 15.4 µM
Would you mind telling me the reported cell viability of each entry?
Field format: number, assumed %, no unit text.

Query for P12-Ichikawa: what cell viability does the record show for O=C(O)c1ccc(-c2c[nH]c3ncc(-c4ccccc4)cc23)cc1C1CCCC1 ?
80.8

What about this compound? C[N+](C)(C)CC(=O)O.[Cl-]
88.2

For CNNCc1ccc(C(=O)NC(C)C)cc1 then?
119

Same again, this time with COc1nccc(-c2c(-c3ccc(F)cc3)ncn2C2CCC(O)CC2)n1 (stereo not given)
98.3

CC1=CC=C2\N=C/3N(CC[C@@]3(O)C(=O)C2=C1)C4=CC=CC=C4 ?
86.6

###

For each of the compounds below, state its cell viability.
Test system: P12-Ichikawa
Experiment: cell viability relative to DMSO control; higher = less cytotoxic
Details: RPMI 5 mM glucose + 10% FBS; 48 h; 0.00234 µM

Give its cell viability value. Item: O=C(NCCCNc1nc(Nc2cccc(NC(=O)N3CCCC3)c2)ncc1I)c1cccs1
91%

Thanks! And Cc1cc(SCc2sc(-c3ccc(C(F)(F)F)cc3)nc2C)ccc1OCC(=O)O ?
104%

// query: CCOC(CN1C(=O)[C@](CC(=O)Nc2ccc(C)cc2)(NC(=O)Nc2ccc(C)cc2)c2ccccc21)OCC
107%

###

Tested on: SEM cells
Test: cell viability relative to DMSO control; higher = less cytotoxic
Conditions: RPMI 5 mM glucose + 10% dialyzed FBS; 48 h; 0.00702 µM
Please provide measured cell viability for the entries that follow.
Lab book: enter the figure in %, no units written.

I am curious: what cell viability value has been reported for CN[C@H]1[C@H](O[C@@H]2[C@H](O[C@@H]3[C@@H](O)[C@@H](O)[C@@H](NC(=N)N)[C@@H](O)[C@H]3NC(=N)N)O[C@H](C)[C@@]2(O)C=O)O[C@@H](CO)[C@@H](O)[C@H]1O ?
118

Could you do the same for CO[C@H]1/C=C/O[C@@]2(C)Oc3c(C)c(O)c4c(O)c(c(/C=N/N5CCN(C)CC5)c(O)c4c3C2=O)NC(=O)/C(C)=C\C=C\[C@H](C)[C@H](O)[C@@H](C)[C@@H](O)[C@@H](C)[C@H](OC(C)=O)[C@@H]1C , please?
104

Entry to check: NCCCCCC(=O)O
101

Same question for OCCNC1CCCc2c1[nH]c1ccc(-c3ccccc3)cc21 (configuration not stated) please.
89.7

Now the same for O=C(O)c1ccc(-c2c[nH]c3ncc(-c4ccccc4)cc23)cc1C1CCCC1
119

Next entry: Cn1cc(-c2cnn3c(N)c(Br)c([C@@H]4CCCNC4)nc23)cn1
84.6

Moving on to O=C(O)CCNc1cc(N2CCc3ccccc3CC2)nc(-c2ccccn2)n1
127

Query CCCc1nc2c(C)cc(-c3nc4ccccc4n3C)cc2n1Cc1ccc(-c2ccccc2C(=O)O)cc1 next
119

Do the same for OC1=CC2=C(C(=O)\C=C(/O2)C3=CC=CC=C3)C(=C1O)O please
102

// repeat for Cc1ccc(NC(=O)Nc2cc(C(F)(F)F)ccc2F)cc1Nc1ccc2c(c1)NC(=O)/C2=C\c1ccc[nH]1 and report
122

Queued: CC(C)(C)Cn1c(N)nc2ccc(-c3[nH]c(C(C)(C)C)nc3-c3ccc(F)cc3)nc21
79.3

Moving on to the next compound: CN(CCOc1ccc(NS(C)(=O)=O)cc1)CCc1ccc(NS(C)(=O)=O)cc1
102

Same thing, different compound: COc1ccc(C(=O)CC(=O)c2ccc(C(C)(C)C)cc2)cc1
101

What do you get for CCOC(CN1C(=O)[C@](CC(=O)Nc2ccc(C)cc2)(NC(=O)Nc2ccc(C)cc2)c2ccccc21)OCC ?
100

And CCCC(CCC)C(=O)[O-] ?
95.3

Repeat for the following compound: CNC(=O)c1ccc(N2C(=S)N(c3ccc(C#N)c(C(F)(F)F)c3)C(=O)C2(C)C)cc1F
31.2

Proceed to CC(=O)OCC(=O)[C@@]12OC(C)(C)O[C@@H]1C[C@H]3[C@@H]4C[C@H](F)C/5=C/C(=O)/C=C\[C@]5(C)[C@@]4(F)[C@@H](O)C[C@]23C
87.9
